- Target entity: PDK-1 (Homo sapiens, UniProt O15530)
- Sequence (O15530 whole entry): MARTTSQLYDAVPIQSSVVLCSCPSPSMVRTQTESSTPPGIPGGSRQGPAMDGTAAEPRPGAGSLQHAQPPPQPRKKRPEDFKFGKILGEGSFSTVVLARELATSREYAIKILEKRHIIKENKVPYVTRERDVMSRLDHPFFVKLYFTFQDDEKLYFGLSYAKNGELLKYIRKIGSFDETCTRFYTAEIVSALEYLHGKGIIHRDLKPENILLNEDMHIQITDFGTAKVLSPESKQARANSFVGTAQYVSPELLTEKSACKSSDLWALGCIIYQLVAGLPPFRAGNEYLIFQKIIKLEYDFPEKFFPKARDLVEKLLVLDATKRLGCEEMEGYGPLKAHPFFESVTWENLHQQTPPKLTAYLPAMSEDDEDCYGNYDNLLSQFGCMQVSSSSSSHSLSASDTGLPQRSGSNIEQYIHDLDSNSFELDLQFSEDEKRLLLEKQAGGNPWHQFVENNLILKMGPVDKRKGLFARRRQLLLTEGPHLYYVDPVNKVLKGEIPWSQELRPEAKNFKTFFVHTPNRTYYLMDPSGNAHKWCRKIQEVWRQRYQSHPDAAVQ
- Protocol details: PDK-1 kinase inhibition ELISA assay (phosphorylation of His6-tagged SGK1 S422D by PDK-1)
- Type: biochemical
- Condition info: PDK-1 ELISA, Table 11; read-out: Average IC50
Quantity name: pIC50
Give bare numbers, as −log10 of the molar value.

Look over these answered cases.
Smiles data | Numeric readout
COc1cc2ncc3c(N)nc(-c4cncc(Nc5ccccc5Nc5ccccc5)c4)cc3c2cc1OC | 6.30
COc1cc2ncc3c(N)nc(-c4cncc(OC[C@@H](N)COC5=NCCN5)c4)cc3c2cc1OC | 8.05
COc1cc2ncc3c(N)nc(-c4cncc(Br)c4)cc3c2cc1OC | 7.18

List pIC50 for every entry below, keeping the order given.
1. COc1cc2ncc3c(N)nc(-c4cncc(OC5CCNCC5)c4)cc3c2cc1OC
2. COCCOc1cc2ncc3c(N)nc(N(C)CCOC)cc3c2cc1OC
3. COc1cc2ncc3c(N)nc(-c4cncc(Nc5ccccc5OCc5ccccc5)c4)cc3c2cc1OC
4. COc1cc(F)cc(-c2cc3c(cnc4cc(OC)c(OC)cc43)c(N)n2)c1
5. COc1cc2ncc3c(N)nc(-c4cncc(O)c4)cc3c2cc1OC

-- reply
1. 6.93
2. 5.65
3. 6.00
4. 6.83
5. 7.24

Lookup result for COc1cc2ncc3c(N)nc(-c4cncc(OC[C@@H]5CN(c6cccc(F)c6)C(=O)N5)c4)cc3c2cc1OC ; measured pIC50: 6.69
